B1: SPATS1 (parent)
chain: GRKKYDIDPRNGIPKLTPGDNPYM

- Variants of: B1
- Assay summary: protein stability index of a GFP-peptide fusion (GPS, HEK-293T) (PSI 1-6); higher = more stable;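 also: lentivirally expressed fusions sorted by FACS into six bins by GFP to DsRed ratio, PSI derived from sequencing read proportions per bin multiplied by bin number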
- Applied conditions: c terminus: a fixed tail appended
Quantity name: protein stability index
Answer field: number only, no words.

Some variants with recorded protein stability index:
GRKKYDIDPDNGIPKLTPGDNPYM [R10D]; 4.41
GRKKYDIDPHNGIPKLTPGDNPYM [R10H]; 3.4
GRKKYDIDPRNGIPKLTPSDNPYM [G19S]; 3.59
GRKKYDIDPRNGIPKLGPGDNPYM [T17G]; 3.48
GRKKYFIDPRNGIPKLTPGDNPYM [D6F]; 2.51

Switching to the query record.
Would you kindly share the measured protein stability index for GRKKYDIGPRNGIPKLTPGDNPYM [D8G] ?
2.93
